- tested on: T1, CSTF2 RRM D50A (Homo sapiens, UniProt P33240 1-107, D50A)
- T1 sequence: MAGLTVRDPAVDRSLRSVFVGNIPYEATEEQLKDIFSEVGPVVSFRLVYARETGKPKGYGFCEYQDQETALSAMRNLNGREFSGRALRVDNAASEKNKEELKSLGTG
- experiment: ITC
pKd: −log10 of the molar value.
observation type: pKd

{"binder": "AUUUUAUGUUUCAGGU (ssRNA) [SVL RNA]", "meas value": 6.16}
